Where these numbers come from: patent US20120088662A1

- Test system: Pyricularia oryzae
- Type: cell-based
- experimental_context: 16 ppm, alone
# cutoff 7 applies to Observed effect; >= gives criterion met, < gives criterion not met

compound	category_label
Fc1ccc([C@@]2(Cn3nc[nH]c3=S)O[C@H]2c2ccccc2Cl)cc1 (relative stereo) [I-1]	criterion not met
[Na+].[S-]c1ncnn1C[C@]1(c2ccccc2Cl)O[C@H]1c1ccccc1Cl (relative stereo) [I-10]	criterion met
CC(=O)Sc1ncnn1C[C@]1(c2ccc(F)cc2)O[C@H]1c1ccccc1Cl (relative stereo) [I-3]	criterion met
O=C(Nc1ccccc1-c1ccc(Cl)cc1)c1cccnc1Cl [boscalid]	criterion met
Fc1ccccc1[C@@]1(Cn2nc[nH]c2=S)O[C@H]1c1ccccc1Cl (relative stereo) [I-14]	criterion met
